# target-or-test-system: human glucagon-like peptide 1 receptor (GLP-1R) (human, UniProt P43220 24-463)
# assay-info: cell-based or functional assay
measurement-type: EC50 (nM) GLP-1R; cAMP content, HEK293 cells expressing human GLP-1R
Numbers only, in nM.

Use these answered entries as a reference point.
                                     binder  experimental_result
0  H-HSQGTFTSDYSKYLDSRAAQDFVWLMNT-NH2 [Compound 246]                  0.3
1  H-HSQGTFTSDYSRYLDSRRAQDFVWLLNT-NH2 [Compound 253]                  0.2
2  H-HSQGTFTSDYSKYLDSRRAQDFVWLKRA-NH2 [Compound 250]                  0.3
3  H-HSQGTFTSDYSKYLDSKAAQDFVWLMNT-NH2 [Compound 260]                 0.02
4  H-HSQGTFTSDYSKYLDSKAAHDFVEWLLRA-NH2 [Compound 48]                 0.06
5  H-HSQGTFTSDYSRYLDSRRAQDFVWLLNK-NH2 [Compound 254]                  0.2
6  H-HSQGTFTSDYSAYLDSRRAQDFVWLMNT-NH2 [Compound 242]                  1.4
7  H-HSQGTFTSDYSKYLDSALAQDFVWLLNT-NH2 [Compound 255]                 0.24

For the 3 binders below, give their EC50 (nM) GLP-1R; cAMP content, HEK293 cells expressing human GLP-1R values.
1. H-HSQGTFTSDYSKYLDSRRAQDFVWLERA-NH2 [Compound 251]
2. H-HSQGTFTSDYSKYLDSRYAQDFVWLMNT-NH2 [Compound 247]
3. H-HSQGTFTSDYSKYLDSRHAQDFVWLMNT-NH2 [Compound 244]

Response given:
1: 0.2; 2: 0.3; 3: 0.5

For the 2 binders below, give their EC50 (nM) GLP-1R; cAMP content, HEK293 cells expressing human GLP-1R values.
1. H-HSQGTFTSDYSKYLDRARADDFVAWLKST-NH2 [Compound 12]
2. H-HSQGTFTSDYSKYLDSRRAQDFVWLESA-NH2 [Compound 248]

Response given:
1: 0.23; 2: 0.5

Hey, just so you know, these numbers are from patent US20130157953A1.
